All figures here come from patent US20220227809A1.

Task for the reader: assign each of the following binders its reported koff.
# MEASUREMENT_TARGET: norovirus GII.17 Saitama strain virus-like particle (VLP) (norovirus GII.17 Saitama strain)
# ASSAY_OVERVIEW: BLI (BLItz), biotinylated peptide on SA chip, VLP in solution
Ends that are not written are not given here.

BINDER	koff
FVWRRRAGLY (also: biotinylated via PEG3 (AEEEA)-Trp spacer, attachment site and resin-derived C-terminal Lys or Cys not given here) [norovirus-binding peptide of SEQ ID NO: 167]	0.00111 s⁻¹
RFLVPVVKVM (also: biotinylated via PEG3 (AEEEA)-Trp spacer, attachment site and resin-derived C-terminal Lys or Cys not given here) [norovirus-binding peptide of SEQ ID NO: 103]	0.0112 s⁻¹
RSMSLHVSMT (also: biotinylated via PEG3 (AEEEA)-Trp spacer, attachment site and resin-derived C-terminal Lys or Cys not given here) [norovirus-binding peptide of SEQ ID NO: 283]	0.00138 s⁻¹

Now for a further binder.
Return koff for the following binder: VWWGRRISRF (also: biotinylated via PEG3 (AEEEA)-Trp spacer, attachment site and resin-derived C-terminal Lys or Cys not given here) [norovirus-binding peptide of SEQ ID NO: 302] 0.0648 s⁻¹
